Listed here: items and their measured EC50.
- TARGET OR TEST SYSTEM: Delta-aminolevulinic acid dehydratase (Yersinia enterocolitica W22703)
- Sequence (F4MUJ9 whole entry): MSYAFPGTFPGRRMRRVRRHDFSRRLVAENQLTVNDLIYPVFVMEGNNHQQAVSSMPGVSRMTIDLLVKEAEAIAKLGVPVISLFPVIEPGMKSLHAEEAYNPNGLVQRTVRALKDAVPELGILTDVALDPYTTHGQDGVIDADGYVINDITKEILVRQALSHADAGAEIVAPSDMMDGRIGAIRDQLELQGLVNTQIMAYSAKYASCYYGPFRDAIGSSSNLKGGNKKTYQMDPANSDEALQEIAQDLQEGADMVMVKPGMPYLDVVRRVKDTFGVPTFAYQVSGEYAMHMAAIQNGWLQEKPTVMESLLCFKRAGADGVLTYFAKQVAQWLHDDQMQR
- MEASUREMENT DESCRIPTION: Stimulation of Yersinia enterocolitica recombinant PBGS expressed in Escherichia coli using 5-ALA as substrate

{"columns": ["COMPOUND STRUCTURE STRING", "TARGET OR TEST SYSTEM", "MEASURE UNIT", "EC50"],
 "data": [
  ["O=C(NCCc1nc2c(C(=O)O)cccc2n1Cc1cccc(C(F)(F)F)c1)c1cccs1", "Delta-aminolevulinic acid dehydratase (Yersinia enterocolitica W22703)", "µM", 23],
  ["O=C(O)c1ccc2c(c1)nc(CCNC(=O)c1cccs1)n2Cc1cccc(C(F)(F)F)c1", "Delta-aminolevulinic acid dehydratase (Yersinia enterocolitica W22703)", "µM", 66]
]}
